- Test target: pseudo-kinase domain (JH2, amino-acids 536-812) of human Wild Type JAK2 (Homo sapiens, UniProt O60674, F794H/W659A/W777A)
- Construct: pseudo-kinase domain (JH2, amino-acids 536-812 with 3 surface mutations W659A, W777A, F794H); purchased BPS Bioscience 79463; host or cells: baculovirus expression system
- Sequence (O60674 536-812 W659A/W777A/F794H): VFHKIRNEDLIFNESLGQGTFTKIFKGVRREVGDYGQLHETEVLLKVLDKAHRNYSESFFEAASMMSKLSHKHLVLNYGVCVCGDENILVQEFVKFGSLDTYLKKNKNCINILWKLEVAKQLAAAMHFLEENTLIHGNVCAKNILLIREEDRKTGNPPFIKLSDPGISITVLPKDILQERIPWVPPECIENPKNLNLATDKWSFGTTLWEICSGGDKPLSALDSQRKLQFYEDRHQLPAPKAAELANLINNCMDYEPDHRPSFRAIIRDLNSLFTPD
- Procedure text: JAK2 LanthaScreen JH2-WT Binding Assay
- Measurement conditions: 1 hour at 25° C.
pIC50: −log10 of the molar value. Structures can show the parent of a compound that is named as a salt.
Could you please report measured pIC50 for the items listed next?

Incoming: Assign pIC50 to the following record: "O=C(O)C(F)(F)F.[2H]C([2H])([2H])n1ncc2cc(-c3c(-c4cnn5c4OCCC5)[nH]c4ncc5c(c34)C3(CC4(CN(S(=O)(=O)CC)C4)C3)C(=O)N5C)ccc21"
Outgoing: ≥ 7.00

Incoming: Assign pIC50 to the following record: CN1C(=O)C2(CCN(C3(CC#N)CCCC3)CC2)c2c1cnc1[nH]c(-c3cnn(C)c3)c(-c3ccc4c(cnn4C)c3)c21 [Example 73, trifluoroacetate salt]
Outgoing: ≥ 7.00

Incoming: Assign pIC50 to the following record: CN1C(=O)C2(CCN(CC3(CC#N)CC3)C2)c2c1cnc1[nH]c(-c3cnn4cccnc34)c(-c3ccc4c(cnn4C)c3)c21 (racemic) [Example 68, trifluoroacetate salt]
Outgoing: ≥ 7.00

Incoming: Assign pIC50 to the following record: COCCS(=O)(=O)N1CCC2(CC1)CC1(C2)C(=O)N(C)c2cnc3[nH]c(-c4cnn(C)c4)c(-c4ccccc4)c3c21 [Example 62, trifluoroacetate salt]
Outgoing: ≥ 7.00

Incoming: Assign pIC50 to the following record: CN1C(=O)C2(CCCCC2)c2c1cnc1[nH]c(-c3ccc(CN4CCC(S(C)(=O)=O)CC4)cc3)c(-c3ccccc3)c21 [Example 11, trifluoroacetate salt]
Outgoing: 6.30 to 7.00

Incoming: Assign pIC50 to the following record: CON1C(=O)C2(CCN(CC3(CC#N)CC3)C2)c2c1cnc1[nH]c(-c3cnn(C)c3)c(-c3ccc4c(cnn4C)c3)c21 (racemic) [Example 72, trifluoroacetate salt]
Outgoing: 5.90 to 6.30

Incoming: Assign pIC50 to the following record: CCS(=O)(=O)N1CC2(C1)CC1(C2)C(=O)N(C)c2cnc3[nH]c(-c4cnn(CC5CCOCC5)c4)c(-c4ccc5c(cnn5C)c4)c3c21 [Example 97, trifluoroacetate salt]
Outgoing: ≥ 7.00

Incoming: Assign pIC50 to the following record: CN1C(=O)C2(CCN(C3(CC#N)CCC3)CC2)c2c1cnc1[nH]c(-c3cnn(CC(C)(C)O)c3)c(-c3ccc(C(F)(F)F)cc3)c21 [Example 52, trifluoroacetate salt]
Outgoing: ≥ 7.00

Incoming: Assign pIC50 to the following record: CCCC(=O)N1CCC2(CC1)CC1(C2)C(=O)N(C)c2cnc3[nH]c(C4=CCC(C(=O)N(C)C)CC4)c(-c4ccc5c(cnn5C)c4)c3c21 (racemic) [Example 63, trifluoroacetate salt]
Outgoing: ≥ 7.00

Incoming: Assign pIC50 to the following record: "O=C(O)C(F)(F)F.[2H]C([2H])([2H])n1ccc(-c2[nH]c3ncc4c(c3c2-c2ccc3c(cnn3C)c2)C2(CC3(CCN(C(=O)CCC)CC3)C2)C(=O)N4C)c1"
Outgoing: ≥ 7.00
